- condition: Ebola virus entry cell assay, ratio channel
The source made the active and inactive calls.
value.kind: AC50

Sample answers from the record:
{"compound": "O=C(O)C1(C(=O)O)CCC1.[NH2-].[NH2-].[Pt+2]", "observed": "inactive"}
{"compound": "CNCC[C@H](Oc1cccc2ccccc12)c1cccs1", "observed": "10 µM (active)"}
{"compound": "OC(CCN1CCCC1)(c1ccccc1)C1CCCCC1 (stereo unspecified)", "observed": "20 µM (active)"}
{"compound": "CN1CCC[C@@H]1Cc1c[nH]c2ccc(CCS(=O)(=O)c3ccccc3)cc12", "observed": "inactive"}
{"compound": "O=C(O)c1cn(C2CC2)c2cc(N3CCNCC3)c(F)cc2c1=O", "observed": "inactive"}

What value of measured AC50 is listed for OCCOCCN1CCN(C(c2ccccc2)c2ccc(Cl)cc2)CC1 (stereo unspecified) ? inactive

Please answer likewise for CNS(=O)(=O)Cc1ccc2[nH]cc(CCN(C)C)c2c1 inactive

---

- condition: Ebola virus entry assay, blue channel fluorescence
Calls of active or inactive are those of the source.
API: response.call in active, inactive

{"compound": "CN(C)CCc1c[nH]c2ccc(CS(=O)(=O)N3CCCC3)cc12", "class.label": "inactive"}
{"compound": "CCOC(=O)Nc1ccc2c(c1)N(C(=O)CCN1CCOCC1)c1ccccc1S2", "class.label": "inactive"}
{"compound": "CN(C)[C@@H]1C(=O)C(C(N)=O)=C(O)[C@@]2(O)C(=O)C3=C(O)c4c(O)ccc(Cl)c4[C@@H](O)[C@H]3C[C@@H]12", "class.label": "inactive"}
{"compound": "Clc1ccc(COC(Cn2ccnc2)c2ccc(Cl)cc2Cl)cc1 (stereo not given)", "class.label": "active"}
{"compound": "NC(=O)N/N=C/c1ccc([N+](=O)[O-])o1", "class.label": "inactive"}

# outcome recorded in this test, key = COc1cc2ncnc(Nc3ccc(F)c(Cl)c3)c2cc1OCCCN1CCOCC1 active

Param item: CN1CCN(CCCN2c3ccccc3Sc3ccc(C(F)(F)F)cc32)CC1 active

Also Cc1nccn1CC1CCc2c(c3ccccc3n2C)C1=O (stereo not given) , if possible. active

How about this compound: CC[C@H](C)C(=O)O[C@H]1C[C@@H](C)C=C2C=C[C@H](C)[C@H](CC[C@@H]3C[C@@H](O)CC(=O)O3)[C@H]21 inactive

Field entry: Nc1nnc(-c2cccc(Cl)c2Cl)c(N)n1 inactive

---

- condition: Ebola virus entry assay, blue channel fluorescence
Activity calls are given as the source filed them.
Answer with one of the outcomes given here: y for active, n for inactive

Worked examples follow.
{"molecule": "CN1CCN(C2=Nc3cc(Cl)ccc3Nc3ccccc32)CC1", "class.label": "y"}
{"molecule": "CC(=O)OCC(CCn1cnc2cnc(N)nc21)COC(C)=O", "class.label": "n"}
{"molecule": "CCOc1ccccc1OCCN[C@H](C)Cc1ccc(OC)c(S(N)(=O)=O)c1", "class.label": "n"}

// outcome(item) with item = N#CC(C#N)=Cc1ccc(O)c(O)c1 n

Moving on to c1ccc2c(c1)OCC(C1=NCCN1)O2 (centres undefined) n

Then this molecule: CCC1C(=O)OCC1Cc1cncn1C (centres undefined) n

---

- procedure.text: Primary qHTS for inhibitors of nuclear receptor binding SET domain protein 2 (NSD2) in an isogenic RCH-ACV NSD2 p.E1099K mutant (9B) (AID 1645876); further: nearly all actives have a fitted effect of over 70% in size
- condition: RCH-ACV (leukaemia line) NSD2 E1099K (9B) viability, CellTiter-Glo, 72 h; series mostly up to 44.9 µM
Results filed as inconclusive are left out. The source made the active and inactive calls. Calls come from the whole dose curve; as a rule, active = well fitted inhibition curve with a large enough effect; inconclusive = small, poorly fitted or top-dose-only effect; inactive = flat fitted curve, though single readings scatter.
Can you answer with just one of these options? True = active, False = inactive

Check the results log: what was the call for O=c1oc2ccccc2c(O)c1C(CC(O)c1ccc(-c2ccc(Br)cc2)cc1)c1ccccc1 (stereo not given) ? False

Then this compound: Cc1cccc(C)c1NC(=O)CN1CCCC1=O False

Another compound to look at: Cc1ccc2c(c1)C1CN(C)CCC1N2 (stereo not given) False

Same thing, different compound: CCC(=O)C(CC(C)N(C)C)(c1ccccc1)c1ccccc1 (stereo not given) True

Param item: O=C1NCN(c2ccccc2)C12CCN(CC1COc3ccccc3O1)CC2 (stereo not given) False

Another compound to look at: CC(C)(C)CC(C)(C)c1ccc(O)cc1 True

Next compound up: CC(=O)Nc1cc([As](=O)(O)O)ccc1O False

Now try CCCN1CCC[C@@H]2Cc3[nH]ncc3C[C@H]21 . False

For CNC(=O)N1N=C(c2ccc(N)cc2)c2cc3c(cc2CC1C)OCO3 (stereo not given) then? True

Proceed to CCN(C(C)=O)c1cccc(-c2ccnc3c(C#N)cnn23)c1 False

Same read-out for NN=C(N)N ? False

Same lookup for C[C@]12C/C(=C/O)C(=O)C[C@@H]1CC[C@@H]1[C@@H]2CC[C@@]2(C)[C@H]1CC[C@]2(C)O , please. True

Another compound to look at: CN1CCN(C(=O)O[C@H]2c3nccnc3C(=O)N2c2ccc(Cl)cn2)CC1 False

Further, for Cc1cccc(C)c1NC1=NCCCS1 ? False

# iterate: C[C@]12CCC(=O)C(O)=C1CC[C@@H]1[C@@H]2CC[C@]2(C)C(=O)CC[C@@H]12 False

Also need CCN(CC)C(=O)N[C@@H]1C=C2c3cccc4[nH]cc(c34)C[C@@H]2N(C)C1 , thanks. False

Param item: NCC1(CC(=O)O)CCCCC1 False

Try the compound CCCN1CCC[C@@H]2Cc3nc(N)ncc3C[C@H]21 False

Another compound to look at: Nc1ccncc1 False

# repeat for C#CCN(C)[C@H](C)Cc1ccccc1 False
